assay: qHTS assay to identify aromatase inhibitors - cell viability counter screen (AID 743084); details: MCF-7 aro ERE viability, CellTiter-Fluor, 24 h; series mostly up to 70.3 µM;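 further: cells stimulated with testosterone during compound exposure; nearly all actives have a fitted effect of over 55% in size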
Records with an inconclusive call do not appear. The source made the active and inactive calls. The call rests on the fitted dose curve; in most records, active means well fitted cell-killing curve with a large enough effect in the repeat runs; inconclusive means weak or mixed curves, or effect the other way; inactive means no such curve, though single readings can be large or run the other way.
Hi! Could you answer with just one of these? T for active, F for inactive

INSERT INTO measurements (structure_as_smiles, group_label) VALUES
  ('COc1cc(C)c(/C=C/C(C)=C/C=C/C(C)=C/C(=O)O)c(C)c1C', 'F');

Dear colleague, could you share the recorded outcome for CC(=O)[C@]1(O)Cc2c(O)c3c(c(O)c2[C@@H](O[C@H]2C[C@H](N)[C@H](O)[C@H](C)O2)C1)C(=O)c1c(O)cccc1C3=O when you have a moment? T

Dear colleague, could you share the recorded outcome for CCCCCCCCCCCCCCCC(=O)O[C@@H]1CC(C)=C(/C=C/C(C)=C/C=C/C(C)=C/C=C/C=C(C)/C=C/C=C(C)/C=C/C2=C(C)C[C@@H](OC(=O)CCCCCCCCCCCCCCC)CC2(C)C)C(C)(C)C1 when you have a moment? F

Dear colleague, could you share the recorded outcome for Cc1cc(-c2ccc(N=Nc3c(S(=O)(=O)O)cc4cc(S(=O)(=O)O)cc(N)c4c3O)c(C)c2)ccc1N=Nc1c(S(=O)(=O)O)cc2cc(S(=O)(=O)O)cc(N)c2c1O when you have a moment? T

Dear colleague, could you share the recorded outcome for COc1ccc(C(=O)CCC(=O)O)c2ccccc12 when you have a moment? F

Dear colleague, could you share the recorded outcome for CCCCC[C@H](O)/C=C/[C@@H]1[C@H]2C/C(=C/CCCC(=O)O)O[C@H]2C[C@H]1O when you have a moment? F

Dear colleague, could you share the recorded outcome for CCCCCCCCCCCCCCCCCCOP(=O)([O-])OC1CC[N+](C)(C)CC1 when you have a moment? F

Dear colleague, could you share the recorded outcome for CC(=O)Oc1cc(C)c(OC(C)=O)c2ccccc12 when you have a moment? F

Dear colleague, could you share the recorded outcome for COc1ccc(/C=C/C(=O)OCCC(C)C)cc1 when you have a moment? F
